B1: FAM50A (parent)
chain: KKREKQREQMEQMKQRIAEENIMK

Variants of: B1
test name: protein stability index of a GFP-peptide fusion (GPS, HEK-293T) (PSI 1-6); higher = more stable;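 note: lentivirally expressed fusions sorted by FACS into six bins by GFP to DsRed ratio, PSI derived from sequencing read proportions per bin multiplied by bin number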
condition description: c terminus: a fixed tail appended
Everything with protein stability index lower than 5 is false; everything else, including exactly 5, is true.

E8T
false
K14V
false
E20V
false
I17K
false
Q12I
false
R16E
true

Prompt: In plain terms: is recorded protein stability index at least 5 for N21P ?
Completion: false

Prompt: In plain terms: is recorded protein stability index at least 5 for Q6A ?
Completion: false

Prompt: In plain terms: is recorded protein stability index at least 5 for E20H ?
Completion: false

Prompt: In plain terms: is recorded protein stability index at least 5 for Q6M ?
Completion: false

Prompt: In plain terms: is recorded protein stability index at least 5 for R16D ?
Completion: true
